The reported measurements were obtained from PubChem BioAssay AID1159580.

test: chemical genetic growth profiling, strain panel (AID 1159580);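 further: tested at 20 µM; growth read once vehicle control cultures reached saturation at 30 °C; lower values mean less growth of the strain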; conditions: S. cerevisiae deletion strains, growth OD, locus YJR066W, strain TOR1 (second series)
Screen size: about 5,500 compounds; about 2,000 (36%) were called active. Not shown: some 18% with an inconclusive outcome. No stated cut-off is given here; in the data, active means normalized growth mostly below about 0.91 (no sharp cut-off); inconclusive means no clear call, values can overlap the other calls; inactive means mostly above about 0.92. Some of the results follow.
Choose one outcome from this list and give only that: active, inactive

Check out these entries, answers already filled in.
Inquiry: # fetch the recorded call for `Oc1c(Br)cc(Br)cc1C=Nc1ccccn1` here
Reply text: active

Inquiry: # fetch the recorded call for `CCOC(=O)N/N=C\c1cc(Cl)cc(Cl)c1O` here
Reply text: inactive

Inquiry: Fill in: this test's call for `Oc1c(Br)cc(Br)cc1C=Nc1ccc(Sc2ccccc2)nc1Sc1ccccc1` is ___
Reply text: active

Inquiry: What did the test return for `Oc1c(Cl)cc(Cl)cc1C=Nc1ccc(Sc2ccccc2)nc1Sc1ccccc1` ?
Reply text: inactive

Inquiry: In this assay, the call recorded for `COc1cc(Br)cc(C=Nc2ccc(Sc3ccccc3)nc2Sc2ccccc2)c1O` was what?
Reply text: inactive

Now look at this one.
Inquiry: Which outcome was assigned to `c1ccc(-c2nnc(-c3ccccn3)nc2-c2ccccc2)cc1` in this test?
Reply text: inactive
